STUDY SYSTEM: human NAMPT (Homo sapiens (Human), UniProt P43490)
Sequence (P43490 whole entry): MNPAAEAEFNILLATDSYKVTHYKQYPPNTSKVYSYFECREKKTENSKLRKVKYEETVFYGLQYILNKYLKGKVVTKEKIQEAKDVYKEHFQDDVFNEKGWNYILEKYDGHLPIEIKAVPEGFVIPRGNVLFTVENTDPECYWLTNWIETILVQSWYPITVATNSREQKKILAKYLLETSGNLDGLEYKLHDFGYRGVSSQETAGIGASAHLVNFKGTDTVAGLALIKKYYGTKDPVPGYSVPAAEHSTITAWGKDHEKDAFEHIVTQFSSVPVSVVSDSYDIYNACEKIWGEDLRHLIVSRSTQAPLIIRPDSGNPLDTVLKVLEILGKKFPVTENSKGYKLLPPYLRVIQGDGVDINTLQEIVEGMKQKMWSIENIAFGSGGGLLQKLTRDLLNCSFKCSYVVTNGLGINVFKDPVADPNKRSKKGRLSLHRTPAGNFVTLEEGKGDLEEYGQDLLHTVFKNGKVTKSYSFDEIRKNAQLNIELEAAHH
TEST PROTOCOL: NMN fluorescence biochemical assay (human recombinant NAMPT enzyme assay)
OBSERVED PROPERTY: AC1.4 Human (µM)

O=C(Nc1ccc(CC2CCN(C3COC3)CC2)cc1)OCc1ccc(Cl)cc1 [Compound 43] :: 0.45
O=C(Nc1ccc(CC2CCN(C(=O)C3COC3)CC2)cc1)OCc1cnco1 [Compound 48] :: 0.49
O=C(Nc1ccc(CN2CCN(c3ncccn3)CC2)cc1)OCc1ccc(Cl)cc1 [Compound 73] :: 0.62

---

STUDY SYSTEM: UniProtKB P43490
TEST PROTOCOL: NMN fluorescence biochemical assay (human recombinant NAMPT enzyme assay)
OBSERVED PROPERTY: EC50 (µM)

Known EC50 results, listed for orientation:
CN(Cc1ccc(NC(=O)OCc2ccc(Cl)cc2)cc1)C(=O)c1ccn[nH]1 [Compound 91] :: 3.8
CC(=O)N1CC2(CC(Cc3ccc(NC(=O)OCc4cnco4)cc3F)C2)C1 [Compound 472] :: 5.63
COC(=O)N1C2CCC1CC(Cc1ccc(NC(=O)OCc3cnco3)cc1)C2 (centres unmarked) [Compound 407] :: 8.55

[P] CN(C)C(=O)N1CCC2(CC(c3ccc(NC(=O)OCc4cnco4)cc3F)C2)C1 (single isomer, unassigned) [Compound 363]
[Q] Cc1ncccc1C(=O)NCc1ccc(NC(=O)OCc2ccc(Cl)cc2)cc1 [Compound 192]
[R] O=C(Nc1ccc(CC(=O)N2CC[C@@H](O)C2)cc1)OCc1ccc(Cl)cc1 [Compound 317]
Output the entries ranked by EC50 from maximum down to minimum. # answer = labels listed in requested order R, Q, P
